Experiment Summary: Stability in human blood serum, Method A
Type: in vitro ADME
Condition Info: human blood serum and RPMI-1640, 37° C.
Experimental: Preparation of the Human Blood Serum: Blood Taken from Healthy Volunteers was obtained from a blood bank (Tel-Hashomer hospital, Israel), stored for 12 h at 4° C. and centrifuged in plastic tubes at 1500 g for 15 min at room temperature. The serum was separated and stored at −80° C. The assay mixture, containing a 40 mM nucleotide derivative solution in deionized water (4.5 μl), human blood serum (180 μl) and RPMI-1640 (540 μl), was incubated at 37° C. for 1, 4, 8, 16, 24, 48, 72 and 96 h. […]
Listed next: entries and their corresponding half-life in human blood serum.
Property: half-life in human blood serum (h)

>>> reported_measurement("CSc1nc(N)c2ncn(C3OC(COP(=O)(O)OP(=O)(O)CP(=O)(O)O)C(O)C3O)c2n1 (stereo not drawn) [Compound 2, β,γ-CH2-2MeS-adenosine-5′-triphosphate]")
12.7
>>> reported_measurement("Nc1ncnc2c1ncn2[C@@H]1O[C@H](COP(=O)(O)OP(=O)(O)OP(=O)(O)O)[C@@H](O)[C@H]1O [ATP, reference compound]")
3.6
>>> reported_measurement("B[P@](=O)(OC[C@H]1O[C@@H](n2cnc3c(N)ncnc32)[C@H](O)[C@@H]1O)OP(=O)(O)CP(=O)(O)O (single isomer, unassigned) [Compound 3A]")
14.1
>>> reported_measurement("B[P@](=O)(OC[C@H]1O[C@@H](n2cnc3c(N)ncnc32)[C@H](O)[C@@H]1O)OP(=O)(O)CP(=O)(O)O (single isomer, unassigned) [Compound 3B]")
47.1

---

Target Of Assay: human P2Y2 (Homo sapiens)
Sequence (P41231 whole entry): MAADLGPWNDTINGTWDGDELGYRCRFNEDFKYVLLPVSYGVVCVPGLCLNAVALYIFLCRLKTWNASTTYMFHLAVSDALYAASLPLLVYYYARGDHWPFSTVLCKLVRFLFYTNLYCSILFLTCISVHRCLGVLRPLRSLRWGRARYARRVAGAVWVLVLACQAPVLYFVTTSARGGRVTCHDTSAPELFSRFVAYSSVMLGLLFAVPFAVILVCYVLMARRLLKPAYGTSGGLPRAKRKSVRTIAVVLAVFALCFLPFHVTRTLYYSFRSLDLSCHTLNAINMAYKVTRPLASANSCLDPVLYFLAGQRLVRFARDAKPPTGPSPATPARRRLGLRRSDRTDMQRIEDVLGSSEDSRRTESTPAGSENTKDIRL
Experiment Summary: Intracellular calcium measurement ([Ca2+]i, fura-2) in 1321N1 astrocytoma cells
Condition Info: 1321N1 cells expressing human P2Y2; read-out: Compound-induced activation of [Ca2+] EC50, P2Y2
Property: EC50

>>> reported_measurement("O=c1ccn([C@@H]2O[C@H](COP(=O)(O)OP(=O)(O)OP(=O)(O)O)[C@@H](O)[C@H]2O)c(=O)[nH]1 [UTP, reference compound]")
"0.64 µM"

---

Target Of Assay: rat P2Y6 (Rattus norvegicus, UniProt Q63371)
Construct: expressed in transfected cells
Sequence (Q63371 whole entry): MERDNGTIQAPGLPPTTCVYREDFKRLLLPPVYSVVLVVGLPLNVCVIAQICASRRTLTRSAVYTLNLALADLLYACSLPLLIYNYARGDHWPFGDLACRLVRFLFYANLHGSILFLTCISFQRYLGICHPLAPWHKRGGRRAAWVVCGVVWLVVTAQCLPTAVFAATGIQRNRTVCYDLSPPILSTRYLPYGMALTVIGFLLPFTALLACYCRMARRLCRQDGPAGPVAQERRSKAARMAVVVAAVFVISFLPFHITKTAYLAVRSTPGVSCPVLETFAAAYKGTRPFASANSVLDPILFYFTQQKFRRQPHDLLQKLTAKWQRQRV
Experiment Summary: Intracellular calcium measurement ([Ca2+]i, fura-2) in 1321N1 astrocytoma cells
Type: cell-based
Condition Info: 1321N1 cells expressing rat P2Y6; read-out: Compound-induced activation of [Ca2+] EC50, P2Y6
Property: EC50 (nM)

>>> reported_measurement("O=c1ccn([C@@H]2O[C@H](COP(=O)(O)OP(=O)(O)O)[C@@H](O)[C@H]2O)c(=O)[nH]1 [UDP, reference compound]")
200

---

Target Of Assay: human P2Y4 (Homo sapiens)
Sequence (P51582 whole entry): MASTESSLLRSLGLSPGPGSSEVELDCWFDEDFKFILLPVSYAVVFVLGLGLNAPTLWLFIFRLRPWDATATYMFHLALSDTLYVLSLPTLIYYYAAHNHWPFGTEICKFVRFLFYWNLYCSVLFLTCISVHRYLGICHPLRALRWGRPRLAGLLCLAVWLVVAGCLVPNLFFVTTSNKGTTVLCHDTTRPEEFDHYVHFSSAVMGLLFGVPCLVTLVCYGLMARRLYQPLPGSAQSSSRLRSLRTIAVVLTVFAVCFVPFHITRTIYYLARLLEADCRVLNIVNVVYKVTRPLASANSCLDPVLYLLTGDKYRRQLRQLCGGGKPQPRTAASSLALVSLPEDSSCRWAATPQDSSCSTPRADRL
Experiment Summary: Intracellular calcium measurement ([Ca2+]i, fura-2) in 1321N1 astrocytoma cells
Condition Info: 1321N1 cells expressing human P2Y4; read-out: Compound-induced activation of [Ca2+] EC50, P2Y4
pEC50: −log10 of the molar value.
Property: pEC50

>>> reported_measurement("O=c1ccn([C@@H]2O[C@H](COP(=O)(O)OP(=O)(O)OP(=O)(O)O)[C@@H](O)[C@H]2O)c(=O)[nH]1 [UTP, reference compound]")
6.32

---

Target Of Assay: turkey P2Y1 (Meleagris gallopavo, UniProt P49652)
Sequence (P49652 whole entry): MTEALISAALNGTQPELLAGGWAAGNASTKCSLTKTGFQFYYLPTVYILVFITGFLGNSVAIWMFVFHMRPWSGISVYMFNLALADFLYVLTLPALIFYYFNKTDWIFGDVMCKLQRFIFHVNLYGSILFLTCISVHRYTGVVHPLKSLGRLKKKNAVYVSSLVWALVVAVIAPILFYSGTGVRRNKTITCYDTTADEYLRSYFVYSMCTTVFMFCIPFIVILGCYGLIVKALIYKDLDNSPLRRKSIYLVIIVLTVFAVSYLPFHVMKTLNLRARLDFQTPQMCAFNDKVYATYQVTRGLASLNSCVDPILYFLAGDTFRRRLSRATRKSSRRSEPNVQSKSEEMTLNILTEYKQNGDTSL
Experiment Summary: Intracellular calcium measurement ([Ca2+]i, fura-2) in 1321N1 astrocytoma cells
Condition Info: human 1321N1 astrocytoma cells expressing turkey P2Y1; read-out: Compound-induced activation of [Ca2+] EC50, P2Y1
pEC50: −log10 of the molar value.
Listed next: entries and their corresponding pEC50.
Property: pEC50

>>> reported_measurement("B[P@](=O)(OC[C@H]1O[C@@H](n2cnc3c(N)nc(SC)nc32)[C@H](O)[C@@H]1O)OP(=O)(O)CP(=O)(O)O")
4.76
>>> reported_measurement("[BH3-]P(=O)(OC[C@H]1O[C@@H](n2cnc3c(N)nc(SC)nc32)[C@H](O)[C@@H]1O)OP(=O)([O-])[O-].[Na+].[Na+].[Na+] (stereo partly shown) [Compound 19A]")
7.42
>>> reported_measurement("BP(=O)(OC[C@H]1O[C@@H](n2cnc3c(N)nc(SC)nc32)[C@H](O)[C@@H]1O)OP(=O)(O)C(Cl)(Cl)P(=O)(O)O (single isomer, unassigned) [Compound 21A]")
6.24
>>> reported_measurement("CSc1nc(N)c2ncn(C3OC(COP(=O)(O)OP(=O)(O)CP(=O)(O)O)C(O)C3O)c2n1 (stereo not drawn) [Compound 2, β,γ-CH2-2MeS-adenosine-5′-triphosphate]")
7.10
>>> reported_measurement("CSc1nc(N)c2ncn([C@@H]3O[C@H](COP(=O)(O)C(F)(F)P(=O)(O)O)[C@@H](O)[C@H]3O)c2n1")
6.01
>>> reported_measurement("BP(=O)(OC[C@H]1O[C@@H](n2cnc3c(N)nc(SC)nc32)[C@H](O)[C@@H]1O)OP(=O)(O)C(Cl)(Cl)P(=O)(O)O (single isomer, unassigned) [Compound 21B]")
5.92
>>> reported_measurement("CSc1nc(N)c2ncn([C@@H]3O[C@H](COP(=O)(O)C(Cl)(Cl)P(=O)(O)O)[C@@H](O)[C@H]3O)c2n1")
5.51
